# TARGET: D(1B) dopamine receptor (Homo sapiens)
# Sequence (P21918 whole entry): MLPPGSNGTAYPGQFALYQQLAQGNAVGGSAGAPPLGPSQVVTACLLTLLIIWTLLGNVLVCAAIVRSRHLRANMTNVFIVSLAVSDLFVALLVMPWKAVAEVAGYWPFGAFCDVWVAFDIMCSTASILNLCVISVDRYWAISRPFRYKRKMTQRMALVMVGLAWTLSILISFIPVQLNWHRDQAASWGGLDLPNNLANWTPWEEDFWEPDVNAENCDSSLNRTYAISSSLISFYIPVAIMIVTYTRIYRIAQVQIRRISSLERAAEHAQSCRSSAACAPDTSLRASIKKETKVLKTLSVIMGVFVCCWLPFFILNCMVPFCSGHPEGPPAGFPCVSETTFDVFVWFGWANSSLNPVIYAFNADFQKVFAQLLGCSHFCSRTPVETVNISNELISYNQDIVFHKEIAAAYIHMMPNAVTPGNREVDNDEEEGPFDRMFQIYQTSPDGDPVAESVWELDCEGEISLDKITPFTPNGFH
# ASSAY SUMMARY: Displacement of [3H]-SCH23390 from recombinant human D5 receptor transiently expressed in HEK cell membranes measured after 90 mins by microbeta scintillation counting method
MEASURED ENDPOINT: pKi
Scale note: pKi = -log10(concentration in M).

// COc1ccccc1N1CCN(CCCSc2nnc(-c3ccccc3)n2C)CC1 : pKi value = 5.52

---

MEASURED ENDPOINT: Ki (nM)
# number only, unit nM dropped from output

The molecule COc1ccccc1N1CCN(CCCSc2nnc(-c3ccccc3)n2C)CC1 , when measured on 5-hydroxytryptamine receptor 2A (Homo sapiens, UniProt P28223), yielded Ki of 1410

---

# TARGET: D(3) dopamine receptor (Homo sapiens, UniProt P35462)
# Sequence (P35462 whole entry): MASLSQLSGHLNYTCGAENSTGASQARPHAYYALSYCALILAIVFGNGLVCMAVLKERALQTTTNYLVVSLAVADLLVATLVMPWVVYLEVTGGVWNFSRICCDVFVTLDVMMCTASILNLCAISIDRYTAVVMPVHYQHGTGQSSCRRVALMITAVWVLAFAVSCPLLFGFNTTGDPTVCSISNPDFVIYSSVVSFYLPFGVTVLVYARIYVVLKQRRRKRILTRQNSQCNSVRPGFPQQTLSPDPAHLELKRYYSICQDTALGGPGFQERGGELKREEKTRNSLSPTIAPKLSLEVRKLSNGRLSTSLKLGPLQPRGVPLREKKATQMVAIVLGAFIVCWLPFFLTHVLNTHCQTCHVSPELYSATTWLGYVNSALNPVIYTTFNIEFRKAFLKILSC
# ASSAY SUMMARY: Displacement of [125I]IABN from recombinant human D3 receptor stably expressed in HEK293 cell membranes measured after 60 mins by scintillation counting analysis
MEASURED ENDPOINT: pKi
pKi is defined as minus the log10 of a concentration measured in mol/L.

According to the records, this compound CCn1c(SCCCN2CCC3(CC2)CCN(c2ccccc2OC)CC3)nnc1-c1ccccc1 displays pKi of 7.31

Documented pKi of COc1ccccc1N1CCC2(CCN(CCCCSc3nnc(-c4ccccc4)n3C)CC2)CC1 : 7.23

Lookup result for COc1ccccc1N1CCC2(CCN(CCCSc3nnc(-c4ccccc4)[nH]3)CC2)CC1 ; measured pKi: 7.49

Briefly, pKi measured for CCCCN1CCC2(CC1)CCN(c1ccccc1OC)C2 : 5.18

Short answer for COc1ccccc1N1CCC2(CCN(CCCSc3nnc(-c4ccccc4F)n3C)CC2)CC1 : pKi was 7.59

Noted for COc1ccccc1N1CCC2(CCN(CCCSc3nnc(-c4ccccc4)n3N)CC2)CC1 : its pKi reads 7.12

pKi measured on Cn1c(SCCCN2CCC3(CC2)CCN(c2ccccc2F)CC3)nnc1-c1ccccc1 = 6.68

According to the records, this compound COc1ccccc1N1CCC2(CCN(CCCSc3nnc(-c4ccc(-c5ncco5)cc4)n3C)CC2)CC1 displays pKi of 7.60

Item: COc1ccccc1N1CCC2(CCN(CCCSc3nnc(C4CCCCC4)n3C)CC2)CC1 | pKi: 7.24

The compound listed as COc1ccccc1N1CCC2(CCN(CCCSc3nnc(-c4ccccc4)n3C)C2)CC1 shows pKi equal to 7.56

---

# TARGET: D(3) dopamine receptor (Homo sapiens, UniProt P35462)
# ASSAY SUMMARY: Displacement of [125I]IABN from recombinant human D3 receptor stably expressed in HEK293 cell membranes measured after 60 mins by scintillation counting analysis
Assignment: determine reported pKi for the given molecules.
Schema: pKi number; meaning minus log10 of the concentration expressed in molar units.

Sample COc1ccccc1N1CCC2(CCN(CCCCNC(=O)c3ccc(N(C)C)cc3)CC2)CC1 ; pKi observed: 7.21

pKi reading for COc1ccc(N2CCC3(CCN(CCCSc4nnc(-c5ccccc5)n4C)CC3)CC2)c(OC)c1 : 6.95

response.value for COc1ccccc1N1CCC2(CCN(CCSc3nnc(-c4ccccc4)n3C)CC2)CC1 (field: pKi) = 7.05

Note to self: pKi recorded for COc1ccccc1N1CCC2(CCN(CCCSc3nnc(-c4ccc(-c5ccsc5)cc4)n3C)CC2)CC1 was 7.00
